Cited source for all entries: the NIST ThermoML archive (doi:10.1016/j.fluid.2006.01.026)

Catalogue of viscosity values
# measurement_parameters: 303.15 K; 101.33 kPa; Liquid; Capillary tube (Ostwald / Ubbelohde) method
Give the value, in units of mPa·s, as a plain number.

CCCCn1cc[n+](C)c1.O=S(=O)([O-])C(F)(F)C(F)OC(F)(F)F (stereo not given)
159
CCCC[n+]1ccn(C)c1.O=S(=O)([O-])C(F)(F)C(F)C(F)(F)F (stereo not given)
192
CCCCn1cc[n+](C)c1.O=S(=O)([O-])C(F)(F)C(F)OC(F)(F)C(F)(F)F (stereo not given)
218
CCCCCCCCCCCCCC[P+](CCCC)(CCCC)CCCC.O=S(=O)([O-])C(F)(F)C(F)C(F)(F)F
539

# ---- query compound ----
Kindly note the recorded viscosity for CCCCCCCCCCCCCC[P+](CCCCCC)(CCCCCC)CCCCCC.O=S(=O)([O-])C(F)(F)C(F)OC(F)(F)C(F)(F)F , which is 330

* * *

# measurement_parameters: 333.15 K; 101.33 kPa; Liquid; Capillary tube (Ostwald / Ubbelohde) method
Mark 0 for viscosity values under 50 mPa·s, and 1 for everything at or above.

CCCCn1cc[n+](C)c1.O=S(=O)([O-])C(F)(F)C(F)OC(F)(F)F (stereo not given)
0
CCCCCCCCCCCCCC[P+](CCCCCC)(CCCCCC)CCCCCC.O=S(=O)([O-])C(F)(F)C(F)OC(F)(F)C(F)(F)F
1
CCCC[n+]1ccn(C)c1.O=S(=O)([O-])C(F)(F)C(F)C(F)(F)F (stereo not given)
0
CCCCCCCCCCCCCC[P+](CCCC)(CCCC)CCCC.O=S(=O)([O-])C(F)(F)C(F)C(F)(F)F
1

Query: Please indicate if the recorded viscosity for CCCCn1cc[n+](C)c1.O=S(=O)([O-])C(F)(F)C(F)OC(F)(F)C(F)(F)F (stereo not given) meets or exceeds 50 mPa·s.
Response: 0

* * *

# measurement_parameters: 323.15 K; 101.33 kPa; Liquid; Capillary tube (Ostwald / Ubbelohde) method
observed_property: viscosity (mPa·s)
Write it as a number; the unit mPa·s goes unstated.

Previously resolved entries follow.
CCCCCCCCCCCCCC[P+](CCCC)(CCCC)CCCC.O=S(=O)([O-])C(F)(F)C(F)C(F)(F)F
167
CCCCCCCCCCCCCC[P+](CCCCCC)(CCCCCC)CCCCCC.O=S(=O)([O-])C(F)(F)C(F)OC(F)(F)C(F)(F)F
118
CCCCn1cc[n+](C)c1.O=S(=O)([O-])C(F)(F)C(F)OC(F)(F)F (stereo not given)
59
CCCC[n+]1ccn(C)c1.O=S(=O)([O-])C(F)(F)C(F)C(F)(F)F (stereo not given)
66.8

Please examine the following record next.
CCCCn1cc[n+](C)c1.O=S(=O)([O-])C(F)(F)C(F)OC(F)(F)C(F)(F)F (stereo not given) yielded viscosity of 71.2

* * *

# measurement_parameters: 363.15 K; 101.33 kPa; Liquid; Capillary tube (Ostwald / Ubbelohde) method
observed_property: viscosity (mPa·s)
All answers are understood in mPa·s, so give the number only.

CCCCn1cc[n+](C)c1.O=S(=O)([O-])C(F)(F)C(F)OC(F)(F)C(F)(F)F (stereo not given)
17.3
CCCC[n+]1ccn(C)c1.O=S(=O)([O-])C(F)(F)C(F)C(F)(F)F (stereo not given)
16.6
CCCCCCCCCCCCCC[P+](CCCC)(CCCC)CCCC.O=S(=O)([O-])C(F)(F)C(F)C(F)(F)F
31.5
CCCCCCCCCCCCCC[P+](CCCCCC)(CCCCCC)CCCCCC.O=S(=O)([O-])C(F)(F)C(F)OC(F)(F)C(F)(F)F
26.7

Continue with the next compound.
The measured viscosity associated with CCCCn1cc[n+](C)c1.O=S(=O)([O-])C(F)(F)C(F)OC(F)(F)F (stereo not given) reads 15.6
